B1: Far upstream element-binding protein 2, residues 142 to 214; numbered along this chain, Q92945 (parent)
chain: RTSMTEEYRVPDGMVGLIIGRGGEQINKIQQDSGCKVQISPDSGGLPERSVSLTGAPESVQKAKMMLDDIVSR

- Variants of: B1
- test.protocol: abundance fitness (aPCA) (normalised: wild type 0, dead -1); higher = more abundant; growth selection in yeast, the domain comes from the species named
- conditions: Homo sapiens
Returns one of Condition met or Condition not met; Condition met when abundance fitness is >= -0.2.

{"mutation": "S33F", "group.label": "Condition not met"}
{"mutation": "S59P", "group.label": "Condition not met"}
{"mutation": "I26R", "group.label": "Condition not met"}
{"mutation": "A56K", "group.label": "Condition met"}
{"mutation": "V71D", "group.label": "Condition not met"}

Determine whether this variant has abundance fitness no lower than -0.2: Q25E
Condition met

Entry source: the Human Domainome abundance scans (Beltran et al. 2025)
